protocolText: Pharmacokinetic Assay
Assay type: in vivo
cond: rat; male rats, single oral (intragastric) dose 25 mg/kg, plasma
Returns: string. Value is Y if measured Cmax is below 10000 ng/mL, and N if it is greater than or equal to it.

Worked examples, 5 compounds total:
compound	groupLabel
Cc1c(-c2ccccc2)cccc1-c1nc2cc(CN3CCCC[C@H]3C(=O)O)c(OCC#N)cc2o1 [Com. EX. No. 1, reference compound]	Y
Cc1c(-c2ccccc2)cccc1-c1nc2cc(CN3CCC[C@H]3C(=O)O)c(C(F)(F)F)cc2o1	N
COc1cc2oc(-c3cccc(-c4ccccc4)c3C)nc2cc1CNCCO [Com. EX. No. 2, reference compound]	Y
Cc1c(-c2ccccc2)cccc1-c1nc2cc(CN3CCOC[C@H]3C(=O)O)c(OC(F)F)cc2o1	N
Cc1c(-c2ccccc2)cccc1-c1nc2cc(CN3CCC[C@H]3C(=O)O)c(Cl)cc2o1	Y

Data request: Record `Cc1c(-c2ccccc2)cccc1-c1nc2cc(CN3CCCC[C@H]3C(=O)O)c(OC(F)F)cc2o1` : is its Cmax strictly below 10000 ng/mL?
Data returned: N

Data request: Record `CSc1cc2oc(-c3cccc(-c4ccccc4)c3C)nc2cc1CN1CCC[C@H]1C(=O)O` : is its Cmax strictly below 10000 ng/mL?
Data returned: N

Data request: Record `Cc1c(-c2nc3cc(CN4CCC[C@H]4C(=O)O)c(OC(F)F)cc3o2)cccc1-c1ccccc1F` : is its Cmax strictly below 10000 ng/mL?
Data returned: N
